# system-tested: central benzodiazepine receptors
# assay-info: inhibition of specific binding of [3H] flunitrazepam to central benzodiazepine receptors, rat brain
# measurement-conditions: 4° C., pH 7.4
In this section we review reported IC50 values for a set of compounds.
readout-name: IC50

[[record]]
compound = "CCCN(CCC)C(=O)C(C)Nc1c(C(=O)OCC)cnc2cc(Br)cnc12 (centres unmarked)"
readout_name = "IC50"
result = "> 20 µM"

[[record]]
compound = "CN(C(=O)CNc1c(C(=O)c2ccccc2)cnc2cc(F)ccc12)c1ccc(Cl)cc1"
readout_name = "IC50"
result = "> 10 µM"

[[record]]
compound = "CCCN(CCC)C(=O)CNc1c(C(=O)c2ccc(Cl)cc2)cnc2ccc(Cl)cc12"
readout_name = "IC50"
result = "14.5 µM"

[[record]]
compound = "Cc1ccc(N(C)C(=O)CNc2c(C(=O)c3ccccc3)cnc3cccnc23)cc1"
readout_name = "IC50"
result = "9.75 µM"

[[record]]
compound = "CN(C(=O)CNc1c(C(=O)c2ccccc2)cnc2cccnc12)c1ccccc1"
readout_name = "IC50"
result = "5.43 µM"

[[record]]
compound = "CN(C(=O)CNc1c(C(=O)c2ccncc2)cnc2cc(Cl)ccc12)c1ccc(Cl)cc1"
readout_name = "IC50"
result = "> 10 µM"

[[record]]
compound = "CN(C(=O)CNc1c(C(=O)c2ccccc2)cnc2cc(C(F)(F)F)ccc12)c1ccc(Cl)cc1"
readout_name = "IC50"
result = "> 10 µM"

[[record]]
compound = "CCCCCN(CCCCC)C(=O)CNc1c(C(=O)c2ccccc2)cnc2cccnc12"
readout_name = "IC50"
result = "> 10 µM"


====

# Tested on: receptors of the peripheral type
# assay-info: in vivo inhibition of [3H] PK11195 binding to peripheral type receptors in organs of the mouse
# measurement-conditions: 25 mg/kg oral, spleen
In this section we review reported % Inhibition, spleen values for a set of compounds.
readout-name: % Inhibition, spleen (%)

[[record]]
compound = "CN(C(=O)CNc1c(C(=O)c2ccccc2)cnc2cc(Br)ccc12)c1ccc(Cl)cc1"
unit_string = "%"
quantitative_result = 64

[[record]]
compound = "COc1ccc(N(C)C(=O)CNc2c(C(=O)c3ccccc3)cnc3cc(Cl)ccc23)cc1"
unit_string = "%"
quantitative_result = 80

[[record]]
compound = "CN(C(=O)CNc1c(C(=O)c2ccccc2)cnc2cc(Cl)ccc12)c1ccc(Cl)cc1"
unit_string = "%"
quantitative_result = 62

[[record]]
compound = "COc1ccc(N(C)C(=O)CNc2c(C(=O)c3ccccc3)cnc3cccnc23)cc1"
unit_string = "%"
quantitative_result = 78

[[record]]
compound = "COc1ccc(C(=O)c2cnc3cccnc3c2NCC(=O)N(C)c2ccc(Cl)cc2)cc1"
unit_string = "%"
quantitative_result = 52

[[record]]
compound = "CN(C(=O)CNc1c(C(=O)c2ccccc2)cnc2cc(Cl)cnc12)c1ccc(Cl)cc1"
unit_string = "%"
quantitative_result = 26

[[record]]
compound = "CCN(C(=O)CNc1c(C(=O)c2ccccc2)cnc2cccnc12)c1ccc(Cl)cc1"
unit_string = "%"
quantitative_result = 84

[[record]]
compound = "CCCN(CCC)C(=O)C(C)Nc1c(C(=O)OCC)cnc2cc(Cl)ccc12 (centres unmarked)"
unit_string = "%"
quantitative_result = 52


====

# system-tested: benzodiazepine receptors of the peripheral type (Felis catus, UniProt A0ABI7ZQW3)
# Sequence (A0ABI7ZQW3 15-183): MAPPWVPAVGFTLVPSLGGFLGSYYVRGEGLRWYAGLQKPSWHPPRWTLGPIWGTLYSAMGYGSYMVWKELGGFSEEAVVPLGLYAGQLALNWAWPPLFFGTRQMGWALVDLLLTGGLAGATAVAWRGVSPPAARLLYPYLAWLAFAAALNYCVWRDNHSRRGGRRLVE
# assay-info: inhibition of specific binding of [3H] PK11195 to peripheral type benzodiazepine receptors, membrane proteins of cat brain
# measurement-conditions: [3H] PK11195 0.5 nM, cat brain membranes, 4° C., 2h30; read-out: IC50 (peripheral)
pIC50: −log10 of the molar value.
readout-name: pIC50

[[record]]
compound = "CN(C(=O)CNc1c(C(=O)c2ccccc2)cnc2cccnc12)c1ccc(Cl)cc1 [compound 26276]"
quantitative_result = 9.52

[[record]]
compound = "CN(C(=O)CNc1c(C(=O)c2ccncc2)cnc2cc(Cl)ccc12)c1ccc(Cl)cc1 [compound 26588]"
quantitative_result = 8.68

[[record]]
compound = "C=CCN(C(=O)CNc1c(C(=O)c2ccccc2)cnc2cccnc12)c1ccc(Cl)cc1 [compound 27181]"
quantitative_result = 9.05

[[record]]
compound = "CN(C(=O)CNc1c(C(=O)c2ccccc2)cnc2ccncc12)c1ccc(Cl)cc1 [compound 26409]"
quantitative_result = 7.08

[[record]]
compound = "CCCN(CCC)C(=O)CNc1c(C(=O)c2ccccc2)cnc2cc(Br)cnc12 [compound 26494]"
quantitative_result = 8.70

[[record]]
compound = "CCCN(CCC)C(=O)C(C)Nc1c(C(=O)OCC)cnc2nc(Cl)ccc12 (centres unmarked) [compound 26493]"
quantitative_result = 7.92

[[record]]
compound = "CN(C(=O)CNc1c(C(=O)c2ccccc2)cnc2cc(Cl)c(Cl)nc12)c1ccc(Cl)cc1 [compound 26918]"
quantitative_result = 9.80

[[record]]
compound = "CCCN(CCC)C(=O)C(C)Nc1c(C(=O)OCC)cnc2cccc(Cl)c12 (centres unmarked) [compound 26399]"
quantitative_result = 8.15

[[record]]
compound = "CCCN(CCC)C(=O)C(C)Nc1c(C(=O)OCC)cnc2cc3c(cc12)OCO3 (racemic) [compound 26552]"
quantitative_result = 7.51

[[record]]
compound = "CCCN(CCC)C(=O)C(CC)Nc1c(C(=O)OCC)cnc2cc(C(F)(F)F)ccc12 (centres unmarked) [compound 26306]"
quantitative_result = 7.96

[[record]]
compound = "CN(C(=O)CNc1c(C(=O)c2ccccc2)cnc2cc(Cl)ccc12)c1ccc(Cl)cc1 [compound 26412]"
quantitative_result = 9.40

[[record]]
compound = "CCCN(CCC)C(=O)C(Nc1c(C(=O)OCC)cnc2ccc(Cl)cc12)c1ccccc1 (centres unmarked) [compound 26529]"
quantitative_result = 7.80

[[record]]
compound = "CN(C(=O)CNc1c(C(=O)c2ccccc2)cnc2cc(Cl)cnc12)c1ccc(Cl)cc1 [compound 26830]"
quantitative_result = 9.89

[[record]]
compound = "CCC(C)N(C)C(=O)c1cc2ccccc2c(-c2ccccc2Cl)n1 (centres unmarked) [PK11195, reference compound]"
quantitative_result = 8.89

[[record]]
compound = "COc1ccc(C(=O)c2cnc3cccnc3c2NCC(=O)N(C)c2ccc(Cl)cc2)cc1 [compound 27153]"
quantitative_result = 8.79

[[record]]
compound = "CCCN(CCC)C(=O)C(C)Nc1c(C(=O)OCC)cnc2cc(Br)ccc12 (centres unmarked) [compound 26377]"
quantitative_result = 9.00

[[record]]
compound = "CCCN(CCC)C(=O)CNc1c(C(=O)c2ccccc2)cnc2ccc(Cl)nc12 [compound 26286]"
quantitative_result = 8.22

[[record]]
compound = "CN(C(=O)CNc1c(C(=O)c2ccccc2)cnc2cccnc12)c1ccccc1 [compound 26803]"
quantitative_result = 8.15

[[record]]
compound = "CCCN(CCC)C(=O)CNc1c(C(=O)c2ccncc2)cnc2cc(Cl)ccc12 [compound 26439]"
quantitative_result = 7.05

[[record]]
compound = "COc1ccc(N(C)C(=O)CNc2c(C(=O)c3ccccc3)cnc3cccnc23)cc1 [compound 27161]"
quantitative_result = 8.64

[[record]]
compound = "CCCN(CCC)C(=O)CNc1c(C(=O)c2ccccc2)cnc2c(Cl)cccc12 [compound 26307]"
quantitative_result = 6.76

[[record]]
compound = "CN(CC(=O)N(C)c1ccc(Cl)cc1)c1c(C(=O)c2ccccc2)cnc2cc(Cl)ccc12 [compound 26841]"
quantitative_result = 7.77

[[record]]
compound = "CCCN(CCC)C(=O)C(Nc1c(C(=O)OCC)cnc2cc(C(F)(F)F)ccc12)c1ccccc1 (centres unmarked) [compound 26275]"
quantitative_result = 7.66

[[record]]
compound = "CCCN(CCC)C(=O)C(C)Nc1c(C(=O)O)cnc2cc(Cl)ccc12 (centres unmarked) [compound 26632]"
quantitative_result = 7.00

[[record]]
compound = "CCCN(CCC)C(=O)C(C)Nc1c(C(=O)OCC)cnc2cc(Br)cnc12 (centres unmarked) [compound 26579]"
quantitative_result = 9.00

[[record]]
compound = "Cc1ccc(N(C)C(=O)CNc2c(C(=O)c3ccccc3)cnc3cccnc23)cc1 [compound 26980]"
quantitative_result = 8.88

[[record]]
compound = "CC(Nc1c(C(=O)c2ccccc2)cnc2nc(Cl)ccc12)C(=O)N(C)c1ccc(Cl)cc1 (centres unmarked) [compound 26517]"
quantitative_result = 7.57

[[record]]
compound = "CN(C(=O)CNc1c(C(=O)c2ccccc2)cnc2cc(Cl)ccc12)c1ccc(C(F)(F)F)cc1 [compound 26778]"
quantitative_result = 7.57

[[record]]
compound = "CCCN(CCC)C(=O)C(C)Nc1c(C(=O)c2ccccc2)cnc2ccc(Cl)cc12 (centres unmarked) [compound 26226]"
quantitative_result = 8.40

[[record]]
compound = "CCCN(CCC)C(=O)CC(C)Nc1c(C(=O)OCC)cnc2cc(Cl)cnc12 (centres unmarked) [compound 26869]"
quantitative_result = 6.76

[[record]]
compound = "CN(C(=O)CNc1c(C(=O)c2ccccc2)cnc2ccc(Cl)cc12)c1ccc(Cl)cc1 [compound 26620]"
quantitative_result = 8.55

[[record]]
compound = "COc1ccc2ncc(C(=O)c3ccccc3)c(NCC(=O)N(C)c3ccc(Cl)cc3)c2n1 [compound 26698]"
quantitative_result = 8.71

